# targetUnderTest: T1, recombinant human TL1A (human, UniProt O95150 71-251)
# T1 construct: The ELISA method says only 'recombinant TL1A' coated on plates; homotrimeric cytokine; also called TNFSF15; recombinant TL1A
# T1 chain: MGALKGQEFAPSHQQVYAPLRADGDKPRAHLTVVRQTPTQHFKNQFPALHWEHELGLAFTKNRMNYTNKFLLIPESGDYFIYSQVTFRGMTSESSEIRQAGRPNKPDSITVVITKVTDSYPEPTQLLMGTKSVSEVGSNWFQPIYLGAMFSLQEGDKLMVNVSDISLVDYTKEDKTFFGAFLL
# methodDescription: competition ELISA on coated recombinant TL1A; competitor biotinylated TL1A-0002
readoutKind: Bioactivity relative to TL1A-0002 (fold)
Give the quantity in fold, number only.

Item TL1A-0002 (antibody, human IgG1, kappa, V domains shown, human IgG1 effector-function-minimized / human kappa; also called parental TL1A-0002 antibody) VH: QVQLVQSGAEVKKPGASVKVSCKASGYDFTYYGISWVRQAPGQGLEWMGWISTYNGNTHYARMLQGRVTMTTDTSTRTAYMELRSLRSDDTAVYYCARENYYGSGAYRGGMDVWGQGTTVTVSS VL: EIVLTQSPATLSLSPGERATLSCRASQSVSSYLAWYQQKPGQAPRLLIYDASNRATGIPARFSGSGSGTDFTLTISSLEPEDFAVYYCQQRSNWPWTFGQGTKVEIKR has what recorded Bioactivity relative to TL1A-0002?
1

Can you share its Bioactivity relative to TL1A-0002? I mean this binder: TL1A-0284 (antibody, human IgG1, kappa, V domains shown, human IgG1 effector-function-minimized / human kappa) VH: QVQLVQSGAEVKKPGASVKVSCKASGYDFTYYGVSWVRQAPGQGLEWMGWISTYNDNTHYAPSLQGRVTMTTDTSTSTAYMELRSLRSDDTAVYYCARESYYGSGAFRGGMDVWGQGTTVTVSS VL: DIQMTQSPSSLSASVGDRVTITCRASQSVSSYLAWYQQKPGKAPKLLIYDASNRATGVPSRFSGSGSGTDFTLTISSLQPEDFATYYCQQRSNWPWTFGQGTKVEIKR
2

# Bioactivity relative to TL1A-0002 lookup, item TL1A-0271 (antibody, human IgG1, kappa, V domains shown, human IgG1 effector-function-minimized / human kappa) VH: QVQLVQSGAEVKKPGASVKVSCKASGYDFSYYGISWVRQAPGQGLEWMGWISTYNDNTHYAPSLQGRVTMTTDTSTSTAYMELRSLRSDDTAVYYCARESYYGSGAHRGGMDVWGQGTTVTVSS VL: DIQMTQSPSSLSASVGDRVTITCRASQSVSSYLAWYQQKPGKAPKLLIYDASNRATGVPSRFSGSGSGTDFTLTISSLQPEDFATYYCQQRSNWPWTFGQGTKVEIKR
2.1
